Attribution: paper PMC11870037

The entries below are paired with their reported pKi.
Biological target: adrenergic α1 receptor
Experiment: Adrenergic α1 receptor binding assay ([3H]prazosin)
Details: rat cerebral cortex, means ± SEM of three experiments, read-out: Receptor Affinity Ki ± SEM α1
pKi is a log-scale quantity: -log10 of the concentration expressed in molar.

Sample answers from the record:
**Q:** Test system adrenergic α1 receptor; read-out pKi; what value for CNCC[C@H](Oc1cccc2ccccc12)c1cccs1 [Duloxetine, reference compound] ?
**A:** 6.00

**Q:** Test system adrenergic α1 receptor; read-out pKi; what value for CC1CCCN(CCCOc2ccc(C(CCN(C)C)Oc3cccc4c3OCO4)cc2)C1.O=C(O)C(=O)O (stereo not shown) [Compound 11q] ?
**A:** 6.51

**Q:** Test system adrenergic α1 receptor; read-out pKi; what value for CN(C)CCC(Oc1cccc2c1OCO2)c1ccc(OCCCN2CCCC2)cc1.O=C(O)C(=O)O (stereo not shown) [Compound 11a] ?
**A:** 6.37

New cases:
**Q:** Test system adrenergic α1 receptor; read-out pKi; what value for CN(C)CCC(Oc1cccc2c1OCO2)c1ccc(OCCCN2CCCCC2)cc1.O=C(O)C(=O)O (stereo not shown) [Compound 11b] ?
**A:** 5.93
